# maps each entry to its PMBC (LD50, μM)
System: human peripheral blood cells
assay-explanation: in vitro toxicities human peripheral blood cells
Format: cell-based
recorded-conditions: human peripheral blood cells
Supply the numeric figure in µM, leaving out any unit text.

{"compound": "CCCCCC(O)=C1C(=O)C(CCSC)N(C(=O)CC(C)CC(C)(C)C)C1=O (stereo not drawn) [24i]", "endpoint-unit": "µM", "assay-value": 30.3}
{"compound": "CCCCCCCCCC(O)=C1C(=O)CCN(C(=O)c2ccc(OC)cc2)C1=O [25d]", "endpoint-unit": "µM", "assay-value": 90.9}

As a next step, examine the compound that follows.
Exam item: human peripheral blood cells / PMBC (LD50, μM) / CCCCCCC(=O)N1CC(=O)C(=C(O)CCCC2CCCCC2)C1=O [27c] : value?
Marked response: 90.9

###

Tested on: human peripheral blood cells
assay-explanation: in vitro toxicities human peripheral blood cells
Assay type: cell-based
recorded-conditions: human peripheral blood cells
# maps each entry to its PMBC (LD50, μM)

Solved cases below.
{"molecule": "CCCCCCCCCCCC(O)=C1C(=O)C(CCSC)N(C(C)=O)C1=O (centres unmarked) [24b]", "PMBC (LD50, μM)": "90.9 µM"}
{"molecule": "CSCCC1C(=O)C(=C(O)CC23CC4CC(CC(C4)C2)C3)C(=O)N1C(=O)C1CCCCC1 (centres unmarked) [31f]", "PMBC (LD50, μM)": ">90.9 µM"}
{"molecule": "CCCCCCCC=CC(=O)N1C(=O)C(=C(O)CCC)C(=O)C1CC(C)C (centres unmarked) [23b]", "PMBC (LD50, μM)": "90.9 µM"}

Exam item: Query (molecule): CCCCCCCC(O)=C1C(=O)C(CCSC)N(C(=O)C2CCCCC2)C1=O (centres unmarked) [24e] ; field requested: PMBC (LD50, μM)
Marked response: >90.9 µM

Exam item: Query (molecule): CCCCCCCC(O)=C1C(=O)C(CCSC)N(C(=O)CC(C)CC(C)(C)C)C1=O (centres unmarked) [24j] ; field requested: PMBC (LD50, μM)
Marked response: 30.3 µM

###

System: mammalian_red blood cell membrane
assay-explanation: In vitro mammalian red blood cell membrane lysis activity
Type: cell-based
recorded-conditions: Active or inactive at 100 μM
measurement-type: RBC membrane lysis activity (active/inactive)

Solved cases below.
{"compound": "CSCCC1C(=O)C(=C(O)CC23CC4CC(C)(CC(C)(C4)C2)C3)C(=O)N1C(C)=O (stereo not drawn) [31e]", "assay-value": "Active"}
{"compound": "CCCCCCCCCC(O)=C1C(=O)C(CCSC)N(C(=O)Cc2cccs2)C1=O (stereo not drawn) [24m]", "assay-value": "Active"}
{"compound": "CCCCCCCCCC(O)=C1C(=O)CCN(C(=O)c2ccc(OC)cc2)C1=O [25d]", "assay-value": "Active"}
{"compound": "CCCCCCCC(O)=C1C(=O)C(CCSC)N(C(=O)C2CCCCC2)C1=O (stereo not drawn) [24e]", "assay-value": "Inactive^d"}

Exam item: mammalian_red blood cell membrane / RBC membrane lysis activity (active/inactive) / CCCCCCCC=CC(=O)N1C(=O)C(=C(O)CCC)C(=O)C1CC(C)C (stereo not drawn) [23b] : value?
Marked response: Inactive^d

Exam item: mammalian_red blood cell membrane / RBC membrane lysis activity (active/inactive) / CCCCCCCC=CC(=O)N1C(=O)C(=C(O)CCCCC)C(=O)C1CC(C)C (stereo not drawn) [23c] : value?
Marked response: Inactive^d

Exam item: mammalian_red blood cell membrane / RBC membrane lysis activity (active/inactive) / CSCCC1C(=O)/C(=C(/O)CCCOc2ccc(Cl)cc2C)C(=O)N1C(=O)CC(C)CC(C)(C)C (stereo not drawn) [31j] : value?
Marked response: Active

###

# maps each entry to its SOL
assay-explanation: aqueous solubility at pH 7.4
Assay type: physicochemical
recorded-conditions: aqueous solubility at pH 7.4 (water with 2% DMSO)

Solved cases below.
{"molecule": "CSCCC1C(=O)C(=C(O)CC23CC4CC(CC(C4)C2)C3)C(=O)N1C(=O)C1CCCCC1 (stereo not drawn) [31f]", "SOL": ">300 µM"}
{"molecule": "CCCCCC(O)=C1C(=O)C(CCSC)N(C(=O)CC(C)CC(C)(C)C)C1=O (stereo not drawn) [24i]", "SOL": ">300 µM"}
{"molecule": "CCCCCCCCCCCC(O)=C1C(=O)C(CCSC)N(C(C)=O)C1=O (stereo not drawn) [24b]", "SOL": ">300 µM"}
{"molecule": "CSCCC1C(=O)C(=C(O)CC23CC4CC(C)(CC(C)(C4)C2)C3)C(=O)N1C(C)=O (stereo not drawn) [31e]", "SOL": ">300 µM"}
{"molecule": "CCCCCCCC(O)=C1C(=O)C(CCSC)N(C(=O)C2CCCCC2)C1=O (stereo not drawn) [24e]", "SOL": ">300 µM"}
{"molecule": "CCCCCCC(=O)N1CC(=O)C(=C(O)CC23CC4CC(CC(C4)C2)C3)C1=O [27i]", "SOL": "67 to 200 µM"}

Exam item: Query (molecule): Cc1cc(Cl)ccc1OCCC/C(O)=C1\C(=O)CCN(C(=O)c2ccccc2)C1=O [19d] ; field requested: SOL
Marked response: >300 µM

Exam item: Query (molecule): CCCCCCCCCC(O)=C1C(=O)CCN(C(=O)c2ccc(OC)cc2)C1=O [25d] ; field requested: SOL
Marked response: 150 to 300 µM

Exam item: Query (molecule): CCCCCCCC(O)=C1C(=O)C(CCSC)N(C(=O)CC(C)CC(C)(C)C)C1=O (stereo not drawn) [24j] ; field requested: SOL
Marked response: >300 µM

###

assay-explanation: aqueous solubility at pH 7.4
Format: physicochemical
recorded-conditions: aqueous solubility at pH 7.4 (water with 2% DMSO)
measurement-type: SOL

Solved cases below.
{"compound": "CCCCCCCCCC(O)=C1C(=O)C(CCSC)N(C(=O)CC(C)CC(C)(C)C)C1=O (stereo not drawn) [24k]", "SOL": ">300 µM"}
{"compound": "CSCCC1C(=O)/C(=C(/O)CC2CC3CCC2C3)C(=O)N1C(=O)CC(C)CC(C)(C)C (stereo not drawn) [31g]", "SOL": ">300 µM"}
{"compound": "CCCCCCCCCC(O)=C1C(=O)CCN(C(=O)c2ccccc2)C1=O [25a]", "SOL": ">300 µM"}
{"compound": "CCCCCCCCCCCC(O)=C1C(=O)CCN(C(=O)c2ccccc2)C1=O [25b]", "SOL": ">300 µM"}
{"compound": "CCCCCCC(=O)N1CC(=O)C(=C(O)CCCOc2ccc(Cl)cc2C)C1=O [28h]", "SOL": ">300 µM"}
{"compound": "CCCCCCC(=O)N1CC(=O)C(=C(O)CC(C)CC(C)(C)C)C1=O (stereo not drawn) [27h]", "SOL": "150 to 300 µM"}
{"compound": "CCCCCCC(=O)N1CC(=O)C(=C(O)CCCC2CCCCC2)C1=O [27c]", "SOL": ">200 µM"}
{"compound": "CSCCC1C(=O)/C(=C(/O)CCCOc2ccc(Cl)cc2C)C(=O)N1C(=O)CC(C)CC(C)(C)C (stereo not drawn) [31j]", "SOL": ">300 µM"}

As a next step, examine the compound that follows.
Exam item: Query (compound): CCCCCCCCCC(O)=C1C(=O)C(CCSC)N(C(=O)Cc2cccs2)C1=O (stereo not drawn) [24m] ; field requested: SOL
Marked response: >300 µM

###

Test system: mammalian_red blood cell membrane
assay-explanation: In vitro mammalian red blood cell membrane lysis activity
Format: cell-based
recorded-conditions: Active or inactive at 100 μM
measurement-type: RBC membrane lysis activity (active/inactive)

Solved cases below.
{"compound": "CCCCCCCCCC(O)=C1C(=O)C(CCSC)N(C(=O)CC(C)CC(C)(C)C)C1=O (centres unmarked) [24k]", "target-or-system": "mammalian_red blood cell membrane", "assay-value": "Active"}
{"compound": "CCCC(=O)N1CC(=O)C(=C(O)CC23CC4CC(C)(CC(C)(C4)C2)C3)C1=O [27k]", "target-or-system": "mammalian_red blood cell membrane", "assay-value": "Active"}
{"compound": "CCCCCCCC=CC(=O)N1C(=O)C(=C(C)O)C(=O)C1CC(C)C (centres unmarked) [23a]", "target-or-system": "mammalian_red blood cell membrane", "assay-value": "Inactive^d"}
{"compound": "CSCCC1C(=O)/C(=C(/O)CC2CC3CCC2C3)C(=O)N1C(=O)CC(C)CC(C)(C)C (centres unmarked) [31g]", "target-or-system": "mammalian_red blood cell membrane", "assay-value": "Active"}
{"compound": "CCCCCCCC(O)=C1C(=O)C(CCSC)N(C(=O)CC(C)CC(C)(C)C)C1=O (centres unmarked) [24j]", "target-or-system": "mammalian_red blood cell membrane", "assay-value": "Active"}
{"compound": "CCCCCCCCCCCC(O)=C1C(=O)CCN(C(=O)c2ccccc2)C1=O [25b]", "target-or-system": "mammalian_red blood cell membrane", "assay-value": "Inactive^d"}
{"compound": "CC(C)CC1C(=O)C(=C(O)CCCCCc2ccccc2)C(=O)N1C(=O)c1ccccc1 (centres unmarked) [30a]", "target-or-system": "mammalian_red blood cell membrane", "assay-value": "Inactive^d"}
{"compound": "CCCCCCC(=O)N1CC(=O)C(=C(O)CC2CC3CCC2C3)C1=O (centres unmarked) [27a]", "target-or-system": "mammalian_red blood cell membrane", "assay-value": "Inactive^d"}
{"compound": "CCCCCCCCCCCCC/C(O)=C1\\C(=O)[C@@H]2CCCC(=O)N2C1=O [22b]", "target-or-system": "mammalian_red blood cell membrane", "assay-value": "Active"}
{"compound": "CCCCCCCCCC(O)=C1C(=O)CCN(C(=O)c2ccccc2)C1=O [25a]", "target-or-system": "mammalian_red blood cell membrane", "assay-value": "Inactive^d"}

As a next step, examine the compound that follows.
Exam item: mammalian_red blood cell membrane / RBC membrane lysis activity (active/inactive) / CSCCC1C(=O)C(=C(O)CC23CC4CC(CC(C4)C2)C3)C(=O)N1C(=O)C1CCCCC1 (centres unmarked) [31f] : value?
Marked response: Inactive^d
